Parameter TP: see the listing below.
Species on record: Rattus norvegicus
protocol: Open TG-GATES - Regimen: Daily Repeat
Format: toxicity, organism-based, Sprague-Dawley
Design: regimen Daily Repeat, gender Male, age 6 weeks
test_settings: in vivo, po, 0 mg/kg, […], tissue Plasma, route gavage, dose level Control, time 28 day

smiles_str	TP, g/dL
O=C(O)c1ccccc1Nc1ccccc1	6.2
CN(C/C=C/C#CC(C)(C)C)Cc1cccc2ccccc12	6
CCCCC1C(=O)N(c2ccccc2)N(c2ccccc2)C1=O	6.4

* * *

Species on record: Rattus norvegicus
protocol: Open TG-GATES - Regimen: Daily Repeat
Format: toxicity, organism-based, Sprague-Dawley
Parameters: regimen Daily Repeat, gender Male, age 6 weeks
test_settings: in vivo, po, 1000 mg/kg, […], tissue Plasma, route gavage, dose level High, time 28 day
Parameter A/G: see the listing below.
result_type: A/G

molecule	recorded_number
CC(=O)[C@@]1(O)CC[C@H]2[C@@H]3C=C(Cl)C4=CC(=O)CC[C@]4(C)[C@H]3CC[C@@]21C	1
CCCCNC(=O)NS(=O)(=O)c1ccc(C)cc1 [TOLBUTAMIDE]	0.8
CC(S)C(=O)NCC(=O)O (centres undefined)	1.2
O=C(O)c1ccccc1Nc1ccccc1	0.9

* * *

Organism: Rattus norvegicus
protocol: Open TG-GATES - Regimen: Daily Repeat
Assay type: toxicity, organism-based, Sprague-Dawley
Design: regimen Daily Repeat, gender Male, age 6 weeks
test_settings: in vivo, po, 300 mg/kg, […], tissue Blood, route gavage, dose level Middle, time 28 day
result_type: MCH (pg)

compound	result_unit	recorded_number
CCCCNC(=O)NS(=O)(=O)c1ccc(C)cc1 [TOLBUTAMIDE]	pg	18.7
O=C(O)c1ccccc1Nc1ccccc1 [FENAMIC ACID]	pg	18.8
CC(S)C(=O)NCC(=O)O (centres undefined) [TIOPRONIN]	pg	20.1
CC(=O)[C@@]1(O)CC[C@H]2[C@@H]3C=C(Cl)C4=CC(=O)CC[C@]4(C)[C@H]3CC[C@@]21C [CHLORMADINONE]	pg	18.9

* * *

Parameter BUN: see the listing below.
Species: Rattus norvegicus
protocol: Open TG-GATES - Regimen: Daily Repeat
Format: toxicity, organism-based, Sprague-Dawley
Parameters: regimen Daily Repeat, gender Male, age 6 weeks
test_settings: in vivo, po, 100 mg/kg, 72 h, tissue Plasma, route gavage, dose level Low, time 3 day

molecule	BUN
CC(=O)[C@@]1(O)CC[C@H]2[C@@H]3C=C(Cl)C4=CC(=O)CC[C@]4(C)[C@H]3CC[C@@]21C	15.8 mg/dL
CCCCNC(=O)NS(=O)(=O)c1ccc(C)cc1 [TOLBUTAMIDE]	15 mg/dL
O=C(O)c1ccccc1Nc1ccccc1	13.8 mg/dL
CC(S)C(=O)NCC(=O)O (centres undefined)	17 mg/dL

* * *

Species on record: Rattus norvegicus
protocol: Open TG-GATES - Regimen: Single
Assay type: toxicity, organism-based, Sprague-Dawley
Parameters: regimen Single, gender Male, age 6 weeks
test_settings: in vivo, po, 0 mg/kg, 9 h, tissue Blood, route gavage, dose level Control

molecule	result_unit	PT
CN(C)CCCN1c2ccccc2Sc2ccc(Cl)cc21	s	12.6
Nc1ccc(Cc2ccc(N)cc2)cc1	s	11.7
CCN(CC)C(=S)SSC(=S)N(CC)CC	s	16.4
CN(C/C=C/C#CC(C)(C)C)Cc1cccc2ccccc12	s	12.2
CC(S)C(=O)NCC(=O)O (stereo not drawn)	s	16.2
CCCCNC(=O)NS(=O)(=O)c1ccc(C)cc1 [TOLBUTAMIDE]	s	13.3
O=C(O)c1ccccc1Nc1ccccc1	s	14.3
COc1ccc([C@@H]2Sc3ccccc3N(CCN(C)C)C(=O)[C@@H]2OC(C)=O)cc1	s	14.5
CN(CCOc1ccc(CC2SC(=O)NC2=O)cc1)c1ccccn1.O=C(O)/C=C\C(=O)O (stereo not drawn) [ROSIGLITAZONE MALEATE]	s	11.9
O=c1ccc2ccccc2o1	s	12.4
CC(=O)[C@@]1(O)CC[C@H]2[C@@H]3C=C(Cl)C4=CC(=O)CC[C@]4(C)[C@H]3CC[C@@]21C	s	15.6
NS(=O)(=O)c1cc(C(=O)O)c(NCc2ccco2)cc1Cl [FUROSEMIDE]	s	15.3
CCO	s	12.2

* * *

Organism: Rattus norvegicus
protocol: Open TG-GATES - Regimen: Single
Format: toxicity, organism-based, Sprague-Dawley
Set-up: regimen Single, gender Male, age 6 weeks
test_settings: in vivo, po, 0 mg/kg, 6 h, tissue Plasma, route gavage, dose level Control
result_type: IP (mg/dL)

molecule	result_type	result_unit	recorded_number
CN(C/C=C/C#CC(C)(C)C)Cc1cccc2ccccc12 [TERBINAFINE]	IP	mg/dL	8.8
COc1cc2ncnc(Nc3ccc(F)c(Cl)c3)c2cc1OCCCN1CCOCC1 [GEFITINIB]	IP	mg/dL	9.6
CN(CCOc1ccc(CC2SC(=O)NC2=O)cc1)c1ccccn1.O=C(O)/C=C\C(=O)O (stereo not drawn) [ROSIGLITAZONE MALEATE]	IP	mg/dL	8.9

* * *

Parameter LIVER: see the listing below.
Species on record: Rattus norvegicus
protocol: Open TG-GATES - Regimen: Single
Assay type: toxicity, organism-based, Sprague-Dawley
Design: regimen Single, gender Male, age 6 weeks
test_settings: in vivo, po, 0 mg/kg, 6 h, tissue Liver, route gavage, dose level Control
result_type: LIVER (g)

compound	result_type	recorded_number
COc1cc2ncnc(Nc3ccc(F)c(Cl)c3)c2cc1OCCCN1CCOCC1	LIVER	9.6
CN(CCOc1ccc(CC2SC(=O)NC2=O)cc1)c1ccccn1.O=C(O)/C=C\C(=O)O (configuration not stated) [ROSIGLITAZONE MALEATE]	LIVER	9.7
CCCCNC(=O)NS(=O)(=O)c1ccc(C)cc1 [TOLBUTAMIDE]	LIVER	8.8
O=C(O)c1ccccc1Nc1ccccc1	LIVER	8.2
CC(S)C(=O)NCC(=O)O (configuration not stated)	LIVER	9
CC(=O)[C@@]1(O)CC[C@H]2[C@@H]3C=C(Cl)C4=CC(=O)CC[C@]4(C)[C@H]3CC[C@@]21C	LIVER	9.2
O=c1ccc2ccccc2o1	LIVER	7.7
Nc1ccc(Cc2ccc(N)cc2)cc1	LIVER	8.5
CN(C)CCCN1c2ccccc2Sc2ccc(Cl)cc21	LIVER	9.2
CN(C/C=C/C#CC(C)(C)C)Cc1cccc2ccccc12	LIVER	9.9
COc1ccc([C@@H]2Sc3ccccc3N(CCN(C)C)C(=O)[C@@H]2OC(C)=O)cc1	LIVER	7.8
CCO	LIVER	9.6

* * *

Parameter Lym: see the listing below.
Species on record: Rattus norvegicus
protocol: Open TG-GATES - Regimen: Single
Format: toxicity, organism-based, Sprague-Dawley
Set-up: regimen Single, gender Male, age 6 weeks
test_settings: in vivo, po, 0 mg/kg, 6 h, tissue Blood, route gavage, dose level Control
result_type: Lym (%)

compound	recorded_number
CCCCNC(=O)NS(=O)(=O)c1ccc(C)cc1 [TOLBUTAMIDE]	80.4
O=c1ccc2ccccc2o1	75.4
CN(CCOc1ccc(CC2SC(=O)NC2=O)cc1)c1ccccn1.O=C(O)/C=C\C(=O)O (centres undefined) [ROSIGLITAZONE MALEATE]	80.2
CN(C/C=C/C#CC(C)(C)C)Cc1cccc2ccccc12	72.6
CCO	74
C=C[C@H]1C[N@@]2CC[C@H]1C[C@@H]2[C@@H](O)c1ccnc2ccc(OC)cc12	81.4
O=C(O)c1ccccc1Nc1ccccc1	76.4
CC(=O)[C@@]1(O)CC[C@H]2[C@@H]3C=C(Cl)C4=CC(=O)CC[C@]4(C)[C@H]3CC[C@@]21C	80.6
Nc1ccc(Cc2ccc(N)cc2)cc1	74.2
COc1ccc([C@@H]2Sc3ccccc3N(CCN(C)C)C(=O)[C@@H]2OC(C)=O)cc1	78
CN(C)CCCN1c2ccccc2Sc2ccc(Cl)cc21	77.2
NS(=O)(=O)c1cc(C(=O)O)c(NCc2ccco2)cc1Cl [FUROSEMIDE]	75.8
COc1cc2ncnc(Nc3ccc(F)c(Cl)c3)c2cc1OCCCN1CCOCC1	83.6
CC(S)C(=O)NCC(=O)O (centres undefined)	83

* * *

Species: Rattus norvegicus
protocol: Open TG-GATES - Regimen: Daily Repeat
Assay type: toxicity, organism-based, Sprague-Dawley
Set-up: regimen Daily Repeat, gender Male, age 6 weeks
test_settings: in vivo, po, 1000 mg/kg, 72 h, tissue Blood, route gavage, dose level High, time 3 day

molecule	result_unit	Plat
CC(S)C(=O)NCC(=O)O (centres undefined)	x10_4/uL	113.1
CC(=O)[C@@]1(O)CC[C@H]2[C@@H]3C=C(Cl)C4=CC(=O)CC[C@]4(C)[C@H]3CC[C@@]21C	x10_4/uL	126.4
O=C(O)c1ccccc1Nc1ccccc1	x10_4/uL	127
CCCCNC(=O)NS(=O)(=O)c1ccc(C)cc1 [TOLBUTAMIDE]	x10_4/uL	129.6
